Examples of compounds with documented % 25 nM CA200645 binding follow.
TESTED SYSTEM: human A3AR (Homo sapiens)
Construct: expressed in transfected cells
Sequence (P0DMS8 1-318): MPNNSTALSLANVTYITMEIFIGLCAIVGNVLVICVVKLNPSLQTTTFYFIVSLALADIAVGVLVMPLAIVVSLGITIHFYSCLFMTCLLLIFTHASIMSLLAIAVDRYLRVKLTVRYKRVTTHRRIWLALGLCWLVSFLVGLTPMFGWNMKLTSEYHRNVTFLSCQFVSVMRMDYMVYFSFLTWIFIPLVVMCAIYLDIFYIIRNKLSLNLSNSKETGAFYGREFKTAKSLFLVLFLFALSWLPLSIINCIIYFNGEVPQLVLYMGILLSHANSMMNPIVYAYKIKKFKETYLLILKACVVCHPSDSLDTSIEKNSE
EXPERIMENT DESCRIPTION: LOPAC library primary screen: single concentration (10 μM) inhibition of 25 nM CA200645 binding, PHERAstar FS
Counter-ions that a name gives are not always drawn.
Please report the result as a number followed by the unit.

The examples below pair each entry with its known result.
INSERT INTO assay_data (compound, measurement) VALUES
  ('Nc1ccc(N2C(=O)c3ccccc3C2=O)c(Cl)c1 [N-(4-Amino-2-chlorophenyl)phthalimide]', '91.1 ± 7.1%'),
  ('c1ccc(C2CN3CCSC3=N2)cc1 (stereo not shown) [Tetramisole hydrochloride]', '95.5 ± 22.8%'),
  ('CCN(CC)CCNC(=O)c1ccc(NS(C)(=O)=O)cc1.Cl.O [Sematilide monohydrochloride monohydrate]', '97.5 ± 2.4%');

Reported % 25 nM CA200645 binding for Cl.Cl.O=c1ccc2[nH]cc(C3=CCNCC3)c2[nH]1 [CP-93129 dihydrochloride hydrate] was 102.1 ± 6.9%

Reported % 25 nM CA200645 binding for Clc1ccc2c(N3CCN(CCCN4CCN(c5ccnc6cc(Cl)ccc56)CC4)CC3)ccnc2c1 [Piperaquine tetraphosphate tetrahydrate] was 96.8 ± 7.2%

Reported % 25 nM CA200645 binding for "O=C[C@H](Cl)[C@@H](O)[C@H](O)[C@H](O)CO" was 89.9 ± 5.0%

Reported % 25 nM CA200645 binding for "OCC(CO)(CBr)CBr" was 93.9 ± 9.9%

Reported % 25 nM CA200645 binding for COC(=O)C(N)Cc1ccc(Cl)cc1.Cl (racemic) was 95.7 ± 6.7%

Reported % 25 nM CA200645 binding for CN(C)CCC=C1c2ccccc2COc2ccccc21 [Doxepin hydrochloride] was 110.0 ± 13.2%

Reported % 25 nM CA200645 binding for "COc1cc(/C=C(\C#N)C(=O)c2ccc(O)c(O)c2)cc(I)c1O" was 71.3 ± 34.4%

Reported % 25 nM CA200645 binding for "O=C1OC(=O)[C@H]2[C@@H]1[C@@H]1CC[C@H]2O1" was 108.5 ± 19.2%

Reported % 25 nM CA200645 binding for CCCCCN(C)CCC(O)(P(=O)([O-])O)P(=O)(O)O.[Na+] [Ibandronate sodium] was 95.5 ± 10.4%

Reported % 25 nM CA200645 binding for Cl.NCCC[C@](N)(C(=O)O)C(F)F (racemic) was 103.2 ± 12.1%

* * *

TESTED SYSTEM: human A3AR (Homo sapiens, UniProt P0DMS8)
Construct: expressed in transfected cells
Sequence (P0DMS8 1-318): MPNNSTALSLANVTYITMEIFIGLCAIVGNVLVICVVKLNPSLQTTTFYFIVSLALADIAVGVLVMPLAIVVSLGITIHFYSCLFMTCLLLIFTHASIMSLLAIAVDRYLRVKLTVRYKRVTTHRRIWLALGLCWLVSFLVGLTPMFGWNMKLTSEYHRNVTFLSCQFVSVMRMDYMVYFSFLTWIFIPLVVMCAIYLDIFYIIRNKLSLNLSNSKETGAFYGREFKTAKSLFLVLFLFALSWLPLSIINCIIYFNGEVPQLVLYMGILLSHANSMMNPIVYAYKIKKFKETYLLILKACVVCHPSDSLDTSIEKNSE
EXPERIMENT DESCRIPTION: LOPAC library primary screen: single concentration (10 μM) inhibition of 25 nM CA200645 binding, PHERAstar FS
CONDITION INFO: 10 μM compound, 25 nM CA200645, A3AR CHO cells
Counter-ions that a name gives are not always drawn.
PROPERTY MEASURED: hit in LOPAC primary screen (inhibited the binding of CA200645 by >40%)

The examples below pair each entry with its known result.
INSERT INTO assay_data (molecule, tested_system, measurement) VALUES
  ('Nc1nc(Nc2ccccc2)nc2c1ncn2[C@@H]1O[C@H](CO)[C@@H](O)[C@H]1O [CV1808, 2-phenylaminoadenosine, reference compound]', 'human A3AR (Homo sapiens, UniProt P0DMS8)', 'identified'),
  ('CCOC(=O)c1cnc2c(cnn2CC)c1NN=C(C)C [etazolate hydrochloride, reference compound]', 'human A3AR (Homo sapiens, UniProt P0DMS8)', 'identified'),
  ('Cn1c(=O)c2c(nc(/C=C/c3cccc(Cl)c3)n2C)n(C)c1=O [CSC, reference compound]', 'human A3AR (Homo sapiens, UniProt P0DMS8)', 'not identified as hits'),
  ('C#CCn1c(=O)c2c(ncn2C)n(C)c1=O [DMPX, reference compound]', 'human A3AR (Homo sapiens, UniProt P0DMS8)', 'identified');

Reported hit in LOPAC primary screen (inhibited the binding of CA200645 by >40%) for Cn1c(=O)c2nc(C3CCCC3)[nH]c2n(C)c1=O [CPT, reference compound] was not identified as hits

Reported hit in LOPAC primary screen (inhibited the binding of CA200645 by >40%) for O=c1nc2[nH]c3ccccc3nc-2c(=O)[nH]1 [alloxazine, reference compound] was not identified as hits
